- Measurement target: mAChR M1 (Homo sapiens, UniProt P11229)
- Sequence (P11229 whole entry, looked up): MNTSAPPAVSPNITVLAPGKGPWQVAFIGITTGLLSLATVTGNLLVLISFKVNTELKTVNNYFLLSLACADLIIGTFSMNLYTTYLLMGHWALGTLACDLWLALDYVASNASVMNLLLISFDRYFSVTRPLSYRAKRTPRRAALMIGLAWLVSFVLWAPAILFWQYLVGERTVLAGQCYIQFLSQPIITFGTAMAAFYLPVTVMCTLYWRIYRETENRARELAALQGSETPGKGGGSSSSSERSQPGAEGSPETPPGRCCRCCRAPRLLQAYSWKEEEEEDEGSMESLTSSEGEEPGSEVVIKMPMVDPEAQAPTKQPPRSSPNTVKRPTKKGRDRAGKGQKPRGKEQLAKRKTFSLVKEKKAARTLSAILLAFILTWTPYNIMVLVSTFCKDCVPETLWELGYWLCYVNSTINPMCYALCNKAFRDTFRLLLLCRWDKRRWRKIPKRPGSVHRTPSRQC
- Protocol: In vitro cellular calcium flux assay, positive allosteric modulation of mAChR M1
- Format: cell-based
- Measurement parameters: BHK cells expressing mAChR M1; EC20 carbachol; Examples 76-80 and 82-89 slightly modified procedure
Reported pEC50 for positive allosteric modulation is given for each of the following compounds.
Please reply with the value in numeric form only.

Solved cases below.
>  <Smiles record>
COc1ccc(Cn2cc(C(=O)N[C@H]3CCCC[C@@H]3O)c3nccc(C)c32)cc1F

>  <Measurement target>
mAChR M1 (Homo sapiens, UniProt P11229)

>  <pEC50 for positive allosteric modulation>
7.9

$$$$
>  <Smiles record>
Cc1cccc(Cn2cc(C(=O)N[C@H]3CCCC[C@@H]3O)c3ncccc32)c1

>  <Measurement target>
mAChR M1 (Homo sapiens, UniProt P11229)

>  <pEC50 for positive allosteric modulation>
6.7

$$$$
>  <Smiles record>
O=C(N[C@H]1CCCC[C@@H]1O)c1cn(Cc2ccncc2)c2c(Cl)ccnc12

>  <Measurement target>
mAChR M1 (Homo sapiens, UniProt P11229)

>  <pEC50 for positive allosteric modulation>
7.4

$$$$
>  <Smiles record>
COc1ccnc2c(C(=O)N[C@H]3CCCC[C@@H]3O)cn(Cc3cccc(F)c3F)c12

>  <Measurement target>
mAChR M1 (Homo sapiens, UniProt P11229)

>  <pEC50 for positive allosteric modulation>
6.3

$$$$

Next compound, please.
Exam item: What pEC50 for positive allosteric modulation value was documented for this compound, `O=C(N[C@H]1CCCC[C@@H]1O)c1cn(Cc2cccc(F)c2F)c2cccnc12` ?
Marked response: 6.5

====

- Measurement target: mAChR M1 (Homo sapiens, UniProt P11229)
- Protocol: In vitro cellular calcium flux assay, positive allosteric modulation of mAChR M1
- Assay type: cell-based
- Measurement parameters: BHK cells expressing mAChR M1; EC20 carbachol; Examples 76-80 and 82-89 slightly modified procedure
Label Satisfied when pEC50 for positive allosteric modulation is at or above 7; otherwise label Not satisfied.

Past entries and their recorded results:
>  <Compound>
Cc1cnc(Cn2cc(C(=O)N[C@H]3CCCC[C@@H]3O)c3nccc(Cl)c32)s1 [Example 75]

>  <Qualitative label>
Not satisfied

$$$$
>  <Compound>
Cc1ccc(Cn2cc(C(=O)N[C@H]3CCCC[C@@H]3O)c3nccc(C)c32)cc1 [Example 63]

>  <Qualitative label>
Satisfied

$$$$
>  <Compound>
O=C(N[C@H]1CCCNC1)c1cn(Cc2ccc(-n3cccn3)cc2)c2cccnc12 [Example 52]

>  <Qualitative label>
Not satisfied

$$$$
>  <Compound>
O=C(N[C@H]1CCCC[C@@H]1O)c1cn(Cc2ccc(C(F)(F)F)cc2)c2cccnc12 [Example 90]

>  <Qualitative label>
Not satisfied

$$$$
>  <Compound>
Cn1cc(Cn2cc(C(=O)N[C@H]3CCCC[C@@H]3O)c3nccc(Cl)c32)cn1 [Example 72]

>  <Qualitative label>
Satisfied

$$$$
>  <Compound>
O=C(N[C@H]1CCCC[C@@H]1O)c1cn(Cc2ccccc2F)c2cccnc12 [Example 22]

>  <Qualitative label>
Not satisfied

$$$$

Exam item: Is pEC50 for positive allosteric modulation for O=C(N[C@H]1CCCC[C@@H]1O)c1cn(Cc2ccc(F)cc2F)c2cccnc12 [Example 24] at or above 7?
Marked response: Not satisfied

Exam item: Would you mind doing O=C(N[C@H]1CCOC[C@@H]1O)c1cn(Cc2ccc(F)cc2)c2c(Cl)ccnc12 [Example 88] as well?
Marked response: Not satisfied

Exam item: Would you mind doing O=C(N[C@@H]1CCOC[C@H]1O)c1cn(Cc2ccc(F)cc2)c2c(Cl)ccnc12 [Example 89] as well?
Marked response: Not satisfied

Exam item: Would you mind doing O=C(NC1CCNCC1)c1cn(Cc2ccc(F)cc2)c2cccnc12 [Example 30] as well?
Marked response: Not satisfied

Exam item: Would you mind doing O=C(N[C@H]1CCCC[C@@H]1O)c1cn(Cc2ccc(Cl)cc2)c2cccnc12 [Example 23] as well?
Marked response: Not satisfied

Exam item: Would you mind doing COc1cc(Cn2cc(C(=O)N[C@H]3CCCC[C@@H]3O)c3nccc(Cl)c32)ccn1 [Example 69] as well?
Marked response: Satisfied

Exam item: Would you mind doing COc1ccc(Cn2cc(C(=O)N[C@H]3CCCC[C@@H]3O)c3nccc(C)c32)cc1 [Example 12] as well?
Marked response: Satisfied

Exam item: Would you mind doing O=C(N[C@@H]1CCCNC1)c1cn(Cc2ccc(-n3cccn3)cc2)c2cccnc12 [Example 53] as well?
Marked response: Not satisfied

Exam item: Would you mind doing COc1ccc(Cn2cc(C(=O)N[C@H]3CCCC[C@@H]3O)c3nccc(OC)c32)cc1 [Example 105] as well?
Marked response: Not satisfied

Exam item: Would you mind doing O=C(N[C@H]1CCCC[C@@H]1O)c1cn(Cc2ccc(OC(F)(F)F)cc2)c2cccnc12 [Example 9] as well?
Marked response: Not satisfied

Exam item: Would you mind doing O=C(N[C@H]1CCCC[C@@H]1O)c1cn(Cc2cc(F)cc(F)c2)c2cccnc12 [Example 2] as well?
Marked response: Not satisfied

====

Reported EC50 is given for each of the following compounds.
- Measurement target: mAChR M4 (Homo sapiens (Human), UniProt P08173)
- Sequence (P08173 whole entry): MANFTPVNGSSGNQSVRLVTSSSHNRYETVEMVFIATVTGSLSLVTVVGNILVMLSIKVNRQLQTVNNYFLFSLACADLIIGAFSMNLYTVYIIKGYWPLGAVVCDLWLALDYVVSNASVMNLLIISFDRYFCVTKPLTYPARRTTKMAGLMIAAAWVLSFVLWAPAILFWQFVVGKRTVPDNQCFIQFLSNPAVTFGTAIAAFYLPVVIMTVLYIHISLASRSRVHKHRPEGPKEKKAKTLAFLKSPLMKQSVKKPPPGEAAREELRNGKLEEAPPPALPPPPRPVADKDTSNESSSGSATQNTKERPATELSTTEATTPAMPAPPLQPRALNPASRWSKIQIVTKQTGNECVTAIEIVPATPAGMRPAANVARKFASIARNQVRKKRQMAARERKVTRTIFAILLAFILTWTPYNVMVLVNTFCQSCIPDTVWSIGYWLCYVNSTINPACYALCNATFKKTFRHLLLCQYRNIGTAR
- Protocol: In vitro cellular calcium flux assay, PAM, NAM and agonist modes, mAChR M4

>  <Compound>
Cc1ccnc2c(C(=O)N[C@H]3CCCC[C@@H]3O)cn(Cc3ccc(F)cc3)c12 [Example 10]

>  <Observable>
EC50

>  <Result>
> 10 µM

$$$$
>  <Compound>
O=C(N[C@H]1CCCC[C@@H]1O)c1cn(Cc2cccc(F)c2F)c2cccnc12 [Example 8]

>  <Observable>
EC50

>  <Result>
> 10 µM

$$$$
>  <Compound>
COc1ccc(Cn2cc(C(=O)N[C@H]3CCCC[C@@H]3O)c3nccc(C)c32)cc1F [Example 13]

>  <Observable>
EC50

>  <Result>
> 10 µM

$$$$
>  <Compound>
Cc1ccnc2c(C(=O)N[C@H]3CCCC[C@@H]3O)cn(Cc3cccc(F)c3F)c12 [Example 11]

>  <Observable>
EC50

>  <Result>
> 10 µM

$$$$
>  <Compound>
Cc1cc(Cn2cc(C(=O)N[C@H]3CCCC[C@@H]3O)c3ncccc32)ccc1F [Example 6]

>  <Observable>
EC50

>  <Result>
> 10 µM

$$$$
>  <Compound>
O=C(NC1CCC(F)(F)C[C@@H]1O)c1cn(Cc2ccc(F)cc2)c2cccnc12 (single isomer, unassigned) [Example 34]

>  <Observable>
EC50

>  <Result>
> 10 µM

$$$$

Exam item: What EC50 value was documented for this compound, O=C(N[C@H]1CCCC[C@@H]1O)c1cn(Cc2ccc(F)cc2)c2cccnc12 [Example 5] ?
Marked response: > 10 µM

Exam item: Would you mind doing COc1ccc(Cn2cc(C(=O)N[C@H]3CCCC[C@@H]3O)c3nccc(C)c32)cc1 [Example 12] as well?
Marked response: > 10 µM

====

Reported pEC50 for positive allosteric modulation is given for each of the following compounds.
- Measurement target: mAChR M1 (Homo sapiens)
- Protocol: In vitro cellular calcium flux assay, positive allosteric modulation of mAChR M1
- Format: cell-based
- Measurement parameters: BHK cells expressing mAChR M1; EC20 carbachol; Examples 76-80 and 82-89 slightly modified procedure

Solved cases below.
>  <Smiles record>
Cc1cc(-c2ccc(Cn3cc(C(=O)N[C@H]4CCCC[C@@H]4O)c4ncccc43)c(F)c2)ccn1

>  <pEC50 for positive allosteric modulation>
7.5

$$$$
>  <Smiles record>
Cc1ccnc2c(C(=O)N[C@H]3CCCC[C@@H]3O)cn(Cc3ccc(F)cc3)c12

>  <pEC50 for positive allosteric modulation>
7.7

$$$$

Exam item: What pEC50 for positive allosteric modulation value was documented for this compound, `O=C(N[C@H]1CCCC[C@@H]1O)c1cn(Cc2cc(F)ccc2F)c2cccnc12` ?
Marked response: 6.8

====

- Measurement target: mAChR M1 (Homo sapiens, UniProt P11229)
- Protocol: In vitro cellular calcium flux assay, positive allosteric modulation of mAChR M1
- Format: cell-based
- Measurement parameters: BHK cells expressing mAChR M1; EC20 carbachol; Examples 76-80 and 82-89 slightly modified procedure
Observable: pEC50 for positive allosteric modulation
Please reply with the value in numeric form only.

>  <Molecule>
O=C(N[C@H]1CCCC[C@@H]1O)c1cn(Cc2cccc(F)c2F)c2c(Cl)ccnc12 [Example 15]

>  <Observable>
pEC50 for positive allosteric modulation

>  <Result>
7.0

$$$$
>  <Molecule>
O=C(N[C@H]1CCCC[C@@H]1O)c1cn(Cc2cccc(F)c2)c2cccnc12 [Example 4]

>  <Observable>
pEC50 for positive allosteric modulation

>  <Result>
6.8

$$$$
>  <Molecule>
Cc1ccc(Cn2cc(C(=O)N[C@H]3CCCC[C@@H]3O)c3ncccc32)c(F)c1 [Example 97]

>  <Observable>
pEC50 for positive allosteric modulation

>  <Result>
6.9

$$$$
>  <Molecule>
Cn1ccnc1-c1ccc(Cn2cc(C(=O)N[C@H]3CCCC[C@@H]3O)c3ncccc32)cc1 [Example 42]

>  <Observable>
pEC50 for positive allosteric modulation

>  <Result>
7.0

$$$$
>  <Molecule>
COc1ccc(Cn2cc(C(=O)N[C@H]3CCCC[C@@H]3O)c3ncccc32)cc1 [Example 93]

>  <Observable>
pEC50 for positive allosteric modulation

>  <Result>
6.9

$$$$
>  <Molecule>
Cc1ccnc2c(C(=O)N[C@H]3CCCC[C@@H]3O)cn(Cc3cccc(F)c3F)c12 [Example 11]

>  <Observable>
pEC50 for positive allosteric modulation

>  <Result>
6.9

$$$$
>  <Molecule>
Cc1ccc(Cn2cc(C(=O)N[C@H]3CCCC[C@@H]3O)c3ncccc32)cc1 [Example 1]

>  <Observable>
pEC50 for positive allosteric modulation

>  <Result>
7.0

$$$$
>  <Molecule>
Cc1ccnc2c(C(=O)N[C@H]3CCCC[C@@H]3O)cn(Cc3ccc(OC(F)(F)F)cc3)c12 [Example 100]

>  <Observable>
pEC50 for positive allosteric modulation

>  <Result>
6.8

$$$$

Exam item: What pEC50 for positive allosteric modulation value was documented for this molecule, O=C(NC1(CO)CCCC1)c1cn(Cc2ccc(F)cc2)c2cccnc12 [Example 21] ?
Marked response: 5.7

Exam item: Would you mind doing O=C(NC1CCOCC1)c1cn(Cc2ccc(F)cc2)c2cccnc12 [Example 29] as well?
Marked response: 5.8
